# Tested on: HCV sub-genomic replicon of genotype 1a in cell line W11.8
# Protocol Text: microbe, parasite or virus in culture
# Format: cell-based, HCV genotype 1a
# Test Settings: Hepatitis C virus, W11.8, 96 h, read-out: HCV-Replicon-ELISA-1a IC50
pIC50: −log10 of the molar value.
Measure: pIC50

Given the compound COCCN(C(=O)c1ccc(Cl)cc1Cl)c1cc(C#CC(C)(C)C)sc1C(=O)O and test system HCV sub-genomic replicon of genotype 1a in cell line W11.8, the measured pIC50 is 6.00 to 7.00

###

The following compounds are shown together with reported CC50 at 72 h values.
# Protocol Text: [3H]Thymidine incorporation assay (CC50)
# Test Settings: human

These recorded examples may help you get a feel for the data.
>  <Input Smiles>
CC(C)(C)C#Cc1cc(N(C(=O)c2ccccc2Cl)[C@H]2CC[C@H](O)CC2)c(C(=O)O)s1

>  <CC50 at 72 h>
> 100 µM

$$$$
>  <Input Smiles>
Cc1ccc(C(=O)N(c2cc(C#CC(C)(C)C)sc2C(=O)O)[C@H]2CC[C@H](O)CC2)c(C)c1

>  <CC50 at 72 h>
10 to 100 µM

$$$$
>  <Input Smiles>
CC(C)(C)C#Cc1cc(N(C(=O)c2ccc(Cl)c(F)c2)[C@H]2CC[C@H](O)CC2)c(C(=O)O)s1

>  <CC50 at 72 h>
10 to 100 µM

$$$$
>  <Input Smiles>
CC(C)(C)C#Cc1cc(N(CCO)C(=O)c2ccc(Cl)cc2Cl)c(C(=O)O)s1

>  <CC50 at 72 h>
10 to 100 µM

$$$$
>  <Input Smiles>
CC(C)(C)C#Cc1cc(N(C(=O)c2ccc(Cl)cc2Cl)C2CCOCC2)c(C(=O)O)s1

>  <CC50 at 72 h>
10 to 100 µM

$$$$

In the following, a different compound is considered.
Please fill in: CC50 at 72 h reported for CC(C)(C)C#Cc1cc(N(C(=O)c2ccc(F)cc2)[C@H]2CC[C@H](O)CC2)c(C(=O)O)s1 = > 100 µM

###

# Test Target: HCV RNA-dependent RNA polymerase (NS5B protein) (Hepatitis C virus genotype 1b, UniProt P26663)
# Sequence (P26663 2420-2989 limits assumed): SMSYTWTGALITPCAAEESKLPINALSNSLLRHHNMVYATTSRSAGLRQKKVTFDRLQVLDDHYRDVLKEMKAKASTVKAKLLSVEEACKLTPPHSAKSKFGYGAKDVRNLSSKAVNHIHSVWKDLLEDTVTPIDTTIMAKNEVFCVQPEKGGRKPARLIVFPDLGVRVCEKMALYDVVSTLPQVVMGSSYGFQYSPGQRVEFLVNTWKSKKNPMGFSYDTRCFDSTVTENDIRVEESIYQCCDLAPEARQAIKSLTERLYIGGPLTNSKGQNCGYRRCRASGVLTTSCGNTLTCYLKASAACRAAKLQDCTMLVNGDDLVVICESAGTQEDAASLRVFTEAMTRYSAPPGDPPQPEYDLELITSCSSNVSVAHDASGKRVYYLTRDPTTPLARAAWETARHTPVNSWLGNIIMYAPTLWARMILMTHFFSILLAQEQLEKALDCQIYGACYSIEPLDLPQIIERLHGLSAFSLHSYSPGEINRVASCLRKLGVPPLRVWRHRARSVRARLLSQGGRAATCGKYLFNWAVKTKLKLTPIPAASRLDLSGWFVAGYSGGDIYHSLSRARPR
# Protocol Text: biochemical
# Design: species or system HCV-Bk strain
# Test Settings: read-out: HCV Polymerase_1b IC50; recombinant truncated NS5B genotype 1b, poly rA/oligo dT, [3H]UTP SPA
pIC50: −log10 of the molar value.
Measure: pIC50

Please fill in: pIC50 reported for CC(C)N(C(=O)c1ccc(Cl)cc1Cl)c1cc(C#CC(C)(C)C)sc1C(=O)O [Compound 1] = 6.00 to 7.00

###

# Test Target: HCV RNA-dependent RNA polymerase (NS5B protein) (Hepatitis C virus genotype 1b)
# Protocol Text: biochemical
# Parameters: species or system HCV-Bk strain
pIC50: −log10 of the molar value.
Measure: pIC50

These recorded examples may help you get a feel for the data.
>  <Input Smiles>
CC(C)(C)C#Cc1cc(N(C(=O)c2ccc(Cl)cc2Cl)[C@H]2CC[C@H](O)CC2)c(C(=O)O)s1

>  <pIC50>
6.00 to 7.00

$$$$
>  <Input Smiles>
CC(C)(C)C#Cc1cc(N(C(=O)c2ccc(C(F)(F)F)cc2)[C@H]2CC[C@H](O)CC2)c(C(=O)O)s1

>  <pIC50>
5.00 to 6.00

$$$$

Please fill in: pIC50 reported for Cc1ccc(C(=O)N(c2cc(C#CC(C)(C)C)sc2C(=O)O)[C@H]2CC[C@H](O)CC2)c(C)c1 = 6.00 to 7.00

###

# Test Target: HCV RNA-dependent RNA polymerase (NS5B protein) (Hepatitis C virus genotype 1b, UniProt P26663)
# Protocol Text: biochemical
# Set-up: species or system HCV-Bk strain
The following compounds are shown together with reported IC50 values.

>  <Input Smiles>
Cc1ccc(C(=O)N(c2cc(C#CC(C)(C)C)sc2C(=O)O)[C@H]2CC[C@H](O)CC2)cc1

>  <Value>
1 to 10 µM

$$$$
>  <Input Smiles>
CC(C)(C)C#Cc1cc(N(C(=O)c2ccc(Cl)c(F)c2)[C@H]2CC[C@H](O)CC2)c(C(=O)O)s1

>  <Value>
1 to 10 µM

$$$$
>  <Input Smiles>
Cc1ccc(C(=O)N(c2cc(C#CC(C)(C)C)sc2C(=O)O)[C@H]2CC[C@H](O)CC2)cc1F

>  <Value>
1 to 10 µM

$$$$
>  <Input Smiles>
CC(C)(C)C#Cc1cc(N(C(=O)c2ccc(Cl)cc2)[C@H]2CC[C@H](O)CC2)c(C(=O)O)s1

>  <Value>
0.1 to 1 µM

$$$$
>  <Input Smiles>
CC(C)(C)C#Cc1cc(N(C(=O)c2ccccc2Cl)[C@H]2CC[C@H](O)CC2)c(C(=O)O)s1

>  <Value>
1 to 10 µM

$$$$
>  <Input Smiles>
CC(C)N(C(=O)c1ccc(Cl)cc1Cl)c1cc(C#CC(C)(C)C)sc1C(=O)O

>  <Value>
0.1 to 1 µM

$$$$
>  <Input Smiles>
COCCN(C(=O)c1ccc(Cl)cc1Cl)c1cc(C#CC(C)(C)C)sc1C(=O)O

>  <Value>
0.1 to 1 µM

$$$$
>  <Input Smiles>
Cc1ccc(C(=O)N(c2cc(C#CC(C)(C)C)sc2C(=O)O)[C@H]2CC[C@H](O)CC2)c(F)c1

>  <Value>
1 to 10 µM

$$$$

Please fill in: IC50 reported for CC(C)(C)C#Cc1cc(N(C(=O)c2ccc(F)cc2)[C@H]2CC[C@H](O)CC2)c(C(=O)O)s1 = 1 to 10 µM

Please fill in: IC50 reported for Cc1ccc(C(=O)N(c2cc(C#CC(C)(C)C)sc2C(=O)O)[C@H]2CC[C@H](O)CC2)c(F)c1F = 1 to 10 µM

Please fill in: IC50 reported for CC(C)(C)C#Cc1cc(N(C(=O)c2ccc(Cl)cc2F)[C@H]2CC[C@H](O)CC2)c(C(=O)O)s1 = 1 to 10 µM

Please fill in: IC50 reported for CC(C)(C)C#Cc1cc(N(CCO)C(=O)c2ccc(Cl)cc2Cl)c(C(=O)O)s1 = 0.1 to 1 µM

Please fill in: IC50 reported for Cc1ccc(C(=O)N(c2cc(C#CC(C)(C)C)sc2C(=O)O)[C@H]2CC[C@H](O)CC2)c(Cl)c1 = 1 to 10 µM

Please fill in: IC50 reported for CC(C)(C)C#Cc1cc(N(C(=O)c2ccc(Cl)cc2Cl)C2CCOCC2)c(C(=O)O)s1 = 1 to 10 µM

Please fill in: IC50 reported for Cc1ccccc1C(=O)N(c1cc(C#CC(C)(C)C)sc1C(=O)O)[C@H]1CC[C@H](O)CC1 = 1 to 10 µM
